Listed variants paired with reported protein stability index
B1: PTPN9 (parent)
chain: IDFLRVVRNQQSLAVSNMGARSKG

Variants of: B1
Test: protein stability index of a GFP-peptide fusion (GPS, HEK-293T) (PSI 1-6); higher = more stable;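 further: lentivirally expressed fusions sorted by FACS into six bins by GFP to DsRed ratio, PSI derived from sequencing read proportions per bin multiplied by bin number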
Conditions: c terminus: a fixed tail appended
Please reply with the number alone, leaving off any unit.

Examples with answers:
IDFLRVVRNQQSLAVSNMGARSYG [K23Y]    1.92
IDFLRVVRNQQSRAVSNMGARSKG [L13R]    2.34
IDFLRVVNNQQSLAVSNMGARSKG [R8N]    2.27
IDFLRVVRNQISLAVSNMGARSKG [Q11I]    1.8
IDFLRVVRNQQSLAVSNMAARSKG [G19A]    2.47
IDFLRVVRNQQSLAVSNMGARSQG [K23Q]    3.29
IDFLRVVRNQQSLAVSNMSARSKG [G19S]    2.08
IDFLRVVRNQQGLAVSNMGARSKG [S12G]    2.48
IDFLRVVRNQQSLPVSNMGARSKG [A14P]    2.7
IDNLRVVRNQQSLAVSNMGARSKG [F3N]    4.45

Now look at this one.
Exercise: Provide protein stability index value for the following variant: IDFLRVVHNQQSLAVSNMGARSKG [R8H]
Key: 2.32

Hello, the source for this data is the supplement of paper PMC10567573, in case you need it.
